Test system: RPMI-8226
experimentalProtocol: NCI tumour cell line growth inhibition, 48 h
Calls of active or inactive are those of the source. Cut-off read from the data, not from the text of the source: active = GI50 up to about 1.1 µM and inactive = higher.
measurementName: GI50

compound	GI50
CCCCN(CCCC)c1ccc(/N=N/c2ccc(S(=O)(=O)O)cc2)cc1	20.4 µM (inactive)

Any idea what GI50 came out for "CCOC(=O)C1=C(O)C(=O)c2c(OC)ccc(OC)c2C1=O" on RPMI-8226?
> 100 µM (inactive)

Any idea what GI50 came out for "S=C(Nc1ccccc1)N1N=C2c3ccccc3CC[C@H]2[C@@H]1c1ccccc1" on RPMI-8226?
4.34 µM (inactive)

Any idea what GI50 came out for "Cc1ccccc1C(=N)c1ccccc1Cc1cccc2ccccc12" on RPMI-8226?
7.43 µM (inactive)

Any idea what GI50 came out for "Cc1cc2c(cc1Cl)SC(NN(C)C)=NS2(=O)=O" on RPMI-8226?
> 10 µM (inactive)

Any idea what GI50 came out for "CCN(CC)CCNc1ccc(/N=N/c2ccc(S(N)(=O)=O)cc2)c2ccccc12" on RPMI-8226?
3.37 µM (inactive)

Any idea what GI50 came out for "CC(=O)c1c2c(cc3c1CC1(Cc4cc5c(cc4C1)CCC5)C3)CCC2" on RPMI-8226?
> 100 µM (inactive)

Any idea what GI50 came out for O=C1[C@H](c2ccccc2)C2c3ccccc3CCN12 (stereo not given in full) on RPMI-8226?
> 10 µM (inactive)

Any idea what GI50 came out for "O=C1C(c2ccc(Cl)cc2)=[N+]([O-])c2ccccc21" on RPMI-8226?
14.9 µM (inactive)

Any idea what GI50 came out for CC(C(N)C(=O)NC(C(=O)O)C1OC(n2ccc(=O)[nH]c2=O)C(O)C1O)C(O)c1ccc(O)cn1 (stereo not given) on RPMI-8226?
> 100 µM (inactive)

* * *

Listed here are compounds together with their documented GI50.
System: SR
experimentalProtocol: NCI tumour cell line growth inhibition, 48 h
Activity calls are given as the source filed them. No stated cut-off is given here; in the data, active = GI50 up to about 1.1 µM and inactive = higher.

compound	measurementName	val
C/C(=C\C(=O)O)C(=O)N(C)c1ccccc1I	GI50	> 100 µM (inactive)
CCCC(=O)NC(Nc1cc(C)ccn1)(C(=O)OCC)C(F)(F)F (stereo unspecified)	GI50	> 100 µM (inactive)
Cn1c(=O)[nH]c2sc3c(c2c1=N)CCCC3	GI50	> 75 µM (inactive)
CCOC(=O)/C=C(/C(=O)OCC)n1ccc(=O)n(Cc2cn(COCCOC(C)=O)nn2)c1=O	GI50	19.4 µM (inactive)
Clc1ccc(/C=N/Nc2nnc3c4ccccc4c4ncccc4c3n2)cc1	GI50	> 10 µM (inactive)

Would you kindly look at the next entry?
I would be grateful if you could share the reported GI50 for CSc1ncc2c(n1)-c1ccccc1OC2N1CCCC1 (stereo unspecified) .
> 100 µM (inactive)

* * *

System: KM12
experimentalProtocol: NCI tumour cell line growth inhibition, 48 h
The source made the active and inactive calls. No stated cut-off is given here; in the data, active = GI50 up to about 1.1 µM and inactive = higher.
Return exactly one item of 1.0 = active, 0.0 = inactive

compound	group
Cc1ccc(C)c(NC(=O)C(=O)C2C(=O)C3=C(CC2(C)C)Nc2ccccc2S3)c1 (stereo not given)	0.0
CN(C)CCNc1ccc2c(=O)n(CCN(C)C)c(=O)n3c4ccc(N)cc4c(=O)c1c23	1.0

Query compound follows.
Recorded call for O=C1[C@H](c2ccccc2)C2c3ccccc3CCN12 (stereo not given in full) ?
0.0

* * *

Tested on: MOLT-4
experimentalProtocol: NCI tumour cell line growth inhibition, 48 h
Active and inactive are the calls of the source. No stated cut-off is given here; in the data, active = GI50 up to about 1.1 µM and inactive = higher.
Return exactly one item of active, inactive

# example entries with known answers
compound	group
CC1=NN(c2cccc(Cl)c2)C2(SCC(=O)N2c2nc3ccccc3s2)/C1=C\c1ccccc1 (stereo not given)	inactive
Cc1cc(NS(=O)(=O)c2ccc(NC(=O)c3cccc4c(Nc5ccc(S(=O)(=O)Nc6cc(C)on6)cc5)c5ccccc5nc34)cc2)no1	inactive
COc1c2c(c3c(c1CCC(=O)O)OC(C)(C)C=C3)OC(C)(C)C=C2	inactive
Cc1c(C)c2c(c(N)c1C#N)C(=O)N(CCN1CCNCC1)C2=O	inactive
O=C(Nc1sccc1S(=O)(=O)c1ccccc1)c1ccccc1	inactive
O=c1cc(-c2ccc(O)c(O)c2)oc2cc(O[C@H]3O[C@H](CO)[C@@H](O)[C@H](O)[C@H]3O)cc(O)c12	inactive
CN(C)CCNc1ccc2c(=O)n(CCN(C)C)c(=O)n3c4ccc(N)cc4c(=O)c1c23	active
COC(=O)Cc1ccc2c(cnn2-c2ccccc2)c1OC	inactive
N#C/C(=C\c1ccccc1)C(NO)Nc1ccccc1 (stereo not given)	inactive
Cn1c(=O)[nH]c2sc3c(c2c1=N)CCCC3	inactive

Query compound follows.
Recorded call for C=C1CCC2(C(C)=O)COC1(C)O2 (stereo not given) ?
inactive

* * *

Listed here are molecules together with their documented GI50.
Tested on: RPMI-8226
experimentalProtocol: NCI tumour cell line growth inhibition, 48 h
The source made the active and inactive calls. Cut-off read from the data, not from the text of the source: active = GI50 up to about 1.1 µM and inactive = higher. Peptide text beside a SMILES is read from it. * marks the point of attachment. Cbz = O=C(OCc1ccccc1)*; OBn = c1ccc(CO*)cc1

molecule	val
Clc1ccc(C(OCn2ccnc2)c2nc3ccccc3[nH]2)c(Cl)c1 (centres undefined)	24.6 µM (inactive)
CC1C[C@H](OC(N)=O)C(C)CC1=O (some centres undefined)	> 100 µM (inactive)
Cc1nc(Cc2n[nH]c(C)n2)n[nH]1	> 100 µM (inactive)
O=C(/C=C/c1ccsc1)c1ccsc1	15.5 µM (inactive)
CC1=NN(c2nc(N)nc(COc3ccc(N)cc3)n2)C(C)(C)C1	> 100 µM (inactive)

Any idea what GI50 came out for "CC(C)/C(Cl)=N\OC(=O)Nc1ccc(F)c([N+](=O)[O-])c1" on RPMI-8226?
2.43 µM (inactive)

Any idea what GI50 came out for COC(=O)CNC(=O)C(C)NC(=O)C(CC(=O)OCc1ccccc1)NC(=O)OCc1ccccc1 (stereo not drawn) (Cbz-Asp(OBn)-Ala-Gly-OMe; configuration not given here) on RPMI-8226?
39 µM (inactive)

Any idea what GI50 came out for "CN(C)c1ccc2c(SCC(=O)OCC(=O)[C@@]3(O)CC[C@H]4[C@@H]5CCC6=CC(=O)C=C[C@]6(C)[C@H]5C(=O)C[C@@]43C)c3ccc(N(C)C)cc3nc2c1" on RPMI-8226?
14.6 µM (inactive)

Any idea what GI50 came out for "O=S(=O)(N/C(=N\O)Nc1ccc(Cl)cc1)c1ccc(S(=O)(=O)c2ccccc2)s1" on RPMI-8226?
13.6 µM (inactive)

* * *

Test system: A498
experimentalProtocol: NCI tumour cell line growth inhibition, 48 h
Active and inactive are the calls of the source. Cut-off read from the data, not from the text of the source: active = GI50 up to about 1.1 µM and inactive = higher.
Listed here are compounds together with their documented GI50.

Observe how each entry below is paired with its result.
compound	target	GI50
CCOC(=O)/C=C(/C(=O)OCC)n1ccc(=O)n(Cc2cn(COCCOC(C)=O)nn2)c1=O	A498	20.5 µM (inactive)
CNC1NC(=O)c2ccccc2N1Cc1ccc(F)cc1 (stereo unspecified)	A498	> 100 µM (inactive)
COc1ccc(N2CCOCC2)cc1	A498	> 100 µM (inactive)
COC(=O)C(CCC1(C)OCCO1)C(C)=O (stereo unspecified)	A498	> 100 µM (inactive)
CC(C)OC(=O)C1=C2c3ncccc3C(=O)N2[C@@H](Cl)[C@H](Cl)[C@H]1Cl	A498	> 100 µM (inactive)
CCCCCCCCCCCCC1N=C(N)N2CCCC2=C1C(=O)OC (stereo unspecified)	A498	22.6 µM (inactive)
COc1ccc(OC)c2c1C1CCC(=O)N1CN2C(C)=O (stereo unspecified)	A498	> 100 µM (inactive)
O=S(=O)(N/C(=N\O)Nc1ccc(Cl)cc1)c1ccc(S(=O)(=O)c2ccccc2)s1	A498	15.5 µM (inactive)

I would be grateful if you could share the reported GI50 for "CCOC(=O)c1nc2ccc(C(F)(F)F)cc2nc1Oc1cc(OC)cc(OC)c1" .
> 100 µM (inactive)

I would be grateful if you could share the reported GI50 for "O=C(CSc1nnc(Cc2ccccc2)o1)Nc1ccccc1" .
> 100 µM (inactive)

I would be grateful if you could share the reported GI50 for COc1cc2c(cc1OC)C(Cc1c3ccccc3cc3ccccc13)N(C)CC2 (stereo unspecified) .
17.4 µM (inactive)

* * *

System: OVCAR-5
experimentalProtocol: NCI tumour cell line growth inhibition, 48 h
Active and inactive are the calls of the source. Rule as the data show it: active = GI50 up to about 1.1 µM and inactive = higher.
Return exactly one item of t (active), f (inactive)

# example entries with known answers
compound	group
Cc1n[nH]c(=O)n1/N=C/c1ccc([N+](=O)[O-])cc1	f
O=C1[C@@H]2C(c3ccc(Cl)cc3Cl)=NO[C@@H]2C(=O)N1c1ccc(Cc2ccc(N3C(=O)[C@H]4C(c5ccc(Cl)cc5Cl)=NO[C@H]4C3=O)cc2)cc1	f
CC1=NN(c2ccccc2Cl)C2(C1)C(Cl)C(=O)N2c1nc2ccccc2s1 (stereo not given)	f
CC1=C(CO)C2=C(C)C3(CC3)[C@@](C)(O)C(=O)C2=C1	t

Recorded call for "C(=N\Cc1ccccc1)/c1ccccc1-c1ccccc1/C=N/Cc1ccccc1" ?
f

Recorded call for CCCCCCCCCCCC(=O)C1=C(O)CC(O)CC1=O (stereo not given) ?
f

Recorded call for N#CC1CC2(CCN1C(=O)c1ccccc1)OCCO2 (stereo not given) ?
f

Recorded call for "Nc1ncnc2sc(Nc3ccccc3)nc12" ?
f

Recorded call for "CN1CCN(Cn2nc(COc3ccc(Cl)cc3)n(/N=C/c3ccc(-c4ccc(Cl)cc4Cl)o3)c2=S)CC1" ?
f

Recorded call for "Cc1c(C)c2c(c(N)c1C#N)C(=O)N(CCN1CCNCC1)C2=O" ?
f
